These measurements were taken from patent US10544143B2.

This listing pairs compounds with measured IC50.
target: human TLR7 (Homo sapiens (Human), UniProt Q9NYK1); test: TLR7 inhibition reporter assay (HEK-Blue SEAP); assay type: cell-based; settings: HEK-Blue cells overexpressing human TLR7, SEAP reporter, gardiquimod 7.5 μM
Sequence (Q9NYK1 27-1049): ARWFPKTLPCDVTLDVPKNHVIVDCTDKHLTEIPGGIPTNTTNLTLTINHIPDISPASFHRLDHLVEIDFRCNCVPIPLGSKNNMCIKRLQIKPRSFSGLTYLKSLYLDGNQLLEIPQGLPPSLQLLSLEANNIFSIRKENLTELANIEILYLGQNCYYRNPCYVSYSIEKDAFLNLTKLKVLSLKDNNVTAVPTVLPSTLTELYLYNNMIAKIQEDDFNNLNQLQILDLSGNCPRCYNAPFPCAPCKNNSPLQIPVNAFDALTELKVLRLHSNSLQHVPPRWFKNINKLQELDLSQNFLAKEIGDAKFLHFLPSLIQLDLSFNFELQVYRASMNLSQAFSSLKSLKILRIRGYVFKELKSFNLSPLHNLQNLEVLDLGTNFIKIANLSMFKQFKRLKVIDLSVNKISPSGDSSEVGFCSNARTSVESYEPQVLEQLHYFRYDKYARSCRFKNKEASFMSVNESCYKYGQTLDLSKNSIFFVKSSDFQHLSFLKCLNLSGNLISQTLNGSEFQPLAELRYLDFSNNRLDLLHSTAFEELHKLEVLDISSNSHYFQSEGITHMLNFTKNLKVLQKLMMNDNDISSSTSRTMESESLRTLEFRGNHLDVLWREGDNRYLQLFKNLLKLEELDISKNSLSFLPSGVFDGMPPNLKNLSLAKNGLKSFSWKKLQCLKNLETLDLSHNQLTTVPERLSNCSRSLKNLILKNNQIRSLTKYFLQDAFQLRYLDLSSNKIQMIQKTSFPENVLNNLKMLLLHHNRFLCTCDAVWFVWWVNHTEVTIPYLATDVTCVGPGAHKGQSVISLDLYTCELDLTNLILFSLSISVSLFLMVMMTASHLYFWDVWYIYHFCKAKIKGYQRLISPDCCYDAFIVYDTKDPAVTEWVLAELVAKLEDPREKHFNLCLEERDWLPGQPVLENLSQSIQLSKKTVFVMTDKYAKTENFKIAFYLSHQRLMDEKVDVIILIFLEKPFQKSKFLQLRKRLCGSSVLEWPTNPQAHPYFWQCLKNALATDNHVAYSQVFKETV
experimental_readout: IC50 (nM)

>>> df
                                   compound                             tested_system  assay_value
0  COc1cc(-c2[nH]c3ccc(C4CCC(NC(=O)C5CCN(C)CC5)C4)nc3c2C(C)C)cn2ncnc12 (stereo not shown)  human TLR7 (Homo sapiens (Human), UniProt Q9NYK1)          1.8
1  Cc1cc(-c2[nH]c3cc(F)c(C4CCN(C5COC5)CC4)nc3c2C(C)C)cn2ncnc12  human TLR7 (Homo sapiens (Human), UniProt Q9NYK1)          2.3
2  Cc1c(-c2[nH]c3ccc(N4CCN(C(=O)CCN(C)C)[C@@H](C)C4)nc3c2C(C)C)cn2ncnc2c1C  human TLR7 (Homo sapiens (Human), UniProt Q9NYK1)         0.42
3  CNC(=O)C(C)(C)NC1CCC(c2ccc3[nH]c(-c4cn5ncnc5c(C)c4C)c(C(C)C)c3n2)CC1 (stereo not shown)  human TLR7 (Homo sapiens (Human), UniProt Q9NYK1)         0.75
